Origin of values: patent US10227331B2

molecular target: IMP-1 (Serratia marcescens, UniProt P52699); assay: biochemical; format: biochemical; conditions: CCF2-FA substrate, 2 hours at 25° C; read-out: IMP-1 IC50
Sequence (P52699 whole entry, looked up, species assumed): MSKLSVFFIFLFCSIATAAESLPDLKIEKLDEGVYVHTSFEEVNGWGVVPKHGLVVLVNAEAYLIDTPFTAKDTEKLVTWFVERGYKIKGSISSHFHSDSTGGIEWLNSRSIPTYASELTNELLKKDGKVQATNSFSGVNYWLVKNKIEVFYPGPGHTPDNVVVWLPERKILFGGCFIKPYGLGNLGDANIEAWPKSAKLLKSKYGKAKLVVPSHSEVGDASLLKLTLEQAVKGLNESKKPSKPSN
Criterion: IC50 strictly under 1 nM. Met: MET. Not met: NOT MET.

Reference set (5 entries):
[[record]]
compound = "NCCS(=O)(=O)c1ccc(-c2cccc3sc(C(=O)O)nc23)c(-c2nn[nH]n2)c1S(N)(=O)=O"
cat = "MET"

[[record]]
compound = "Cn1ncc2cccc(-c3ccc(S(=O)(=O)C4CNC4)c(S(N)(=O)=O)c3-c3nnn[nH]3)c21.O=C(O)C(F)(F)F [Example 130, 2,2,2-trifluoroacetate]"
cat = "NOT MET"

[[record]]
compound = "CS(=O)(=O)N1CC(S(=O)(=O)c2ccc(-c3cccc4[nH]c(N)nc34)c(-c3nn[nH]n3)c2S(N)(=O)=O)C1"
cat = "NOT MET"

[[record]]
compound = "NCCS(=O)(=O)c1ccc(-c2ccnc3ccccc23)c(-c2nnn[nH]2)c1S(N)(=O)=O.O=C(O)C(F)(F)F [Example 138, 2,2,2-trifluoroacetate]"
cat = "NOT MET"

[[record]]
compound = "CS(=O)(=O)c1ccc([C@H]2CC[C@H](N)CC2)c(-c2nnn[nH]2)c1S(N)(=O)=O"
cat = "NOT MET"


Continue with the next compound.
# strict comparison: is reported IC50 < 1 nM? input = C[C@H](CN)S(=O)(=O)c1ccc(-c2cccc3c2nc(N)n3C)c(-c2nn[nH]n2)c1S(N)(=O)=O
MET

###

molecular target: IMP-1 (Serratia marcescens); assay: biochemical; type: biochemical; conditions: CCF2-FA substrate, 2 hours at 25° C; read-out: IMP-1 IC50
Measured pIC50 values are reported for all entries that follow.
Schema: pIC50 number; meaning minus log10 of the concentration expressed in molar units.

Example entries and their recorded answers appear below.
[[record]]
molecular_string = "Cn1c(N)nc2cccc(-c3ccc(S(=O)(=O)C4CNC4)c(S(N)(=O)=O)c3-c3nn[nH]n3)c21"
value_type = "pIC50"
test_result = 8.60

[[record]]
molecular_string = "NCCS(=O)(=O)c1ccc(-c2cccc(-n3ccnc3)c2)c(-c2nnn[nH]2)c1S(N)(=O)=O"
value_type = "pIC50"
test_result = 9.07

[[record]]
molecular_string = "NS(=O)(=O)c1c(S(=O)(=O)C2CNC2)ccc([C@H]2CC[C@@H](N)CC2)c1-c1nnn[nH]1"
value_type = "pIC50"
test_result = 7.17


Okay, next one:
Please look up its pIC50: NC(=O)N1CCC(S(=O)(=O)c2ccc(-c3cccc4nc(N)[nH]c34)c(-c3nn[nH]n3)c2S(N)(=O)=O)CC1
8.86

###

test system: P. aeruginosa expressing IMP-1, efflux+ (MB9798); type: cell-based, Pseudomonas aeruginosa; settings: ratio MITC95 PA_9798/MITC95 PA_9799
value-type: Efflux ratio

[[record]]
molecule = "NCCS(=O)(=O)c1ccc(-c2cccc3cnccc23)c(-c2nnn[nH]2)c1S(N)(=O)=O.O=C(O)C(F)(F)F"
value_type = "Efflux ratio"
test_result = 8.00

[[record]]
molecule = "NCCS(=O)(=O)c1ccc(-c2cnc(N)c(C(N)=O)c2)c(-c2nn[nH]n2)c1S(N)(=O)=O"
value_type = "Efflux ratio"
test_result = 8.00

[[record]]
molecule = "Nc1nc2cccc(-c3ccc(S(=O)(=O)C4CNC4)c(S(N)(=O)=O)c3-c3nn[nH]n3)c2o1"
value_type = "Efflux ratio"
test_result = 4.00

[[record]]
molecule = "NCCS(=O)(=O)c1ccc(-c2cccc(-n3cccn3)c2)c(-c2nnn[nH]2)c1S(N)(=O)=O.O=C(O)C(F)(F)F"
value_type = "Efflux ratio"
test_result = 31.99

[[record]]
molecule = "NC[C@@H](O)CS(=O)(=O)c1ccc(-c2cccnc2N)c(-c2nn[nH]n2)c1S(N)(=O)=O"
value_type = "Efflux ratio"
test_result = 1.00

[[record]]
molecule = "NC1CCC(c2ccc(S(=O)(=O)CC3CNC3)c(S(N)(=O)=O)c2-c2nnn[nH]2)CC1 (stereo not shown)"
value_type = "Efflux ratio"
test_result = 4.00


Okay, next one:
Please look up its Efflux ratio: Nc1nc2c(-c3ccc(S(=O)(=O)C4CNC4)c(S(N)(=O)=O)c3-c3nn[nH]n3)cccc2n1CCO
1.00

###

target: IMP-1 (Serratia marcescens); assay: biochemical; assay type: biochemical; settings: CCF2-FA substrate, 2 hours at 25° C; read-out: IMP-1 IC50
Measured pIC50 values are reported for all entries that follow.
Schema: pIC50 number; meaning minus log10 of the concentration expressed in molar units.

Example entries and their recorded answers appear below.
[[record]]
compound = "Nc1nc2cccc(-c3ccc(S(=O)(=O)[C@H]4C[C@H](N)C4)c(S(N)(=O)=O)c3-c3nn[nH]n3)c2[nH]1"
test_result = 8.66

[[record]]
compound = "Nc1nc2c(-c3ccc(S(=O)(=O)C4CNC4)c(S(N)(=O)=O)c3-c3nn[nH]n3)cccc2s1"
test_result = 9.64

[[record]]
compound = "NC(=O)c1ccc(-c2ccc(S(=O)(=O)C3CNC3)c(S(N)(=O)=O)c2-c2nnn[nH]2)c(N)n1"
test_result = 8.88


Please look up its pIC50: NS(=O)(=O)c1c(S(=O)(=O)[C@H]2CCNC2)ccc(-c2cccc3cn[nH]c23)c1-c1nn[nH]n1
9.27

Same thing, different compound: NS(=O)(=O)c1c(S(=O)(=O)C2CNC2)ccc([C@H]2CC[C@H](N)CC2)c1-c1nnn[nH]1
7.52

###

molecular target: UniProtKB C7C422; test: biochemical; format: biochemical; conditions: CCF2-FA substrate, 2 hours at 25° C; read-out: NDM-1 IC50
Sequence (C7C422 whole entry, looked up, species assumed): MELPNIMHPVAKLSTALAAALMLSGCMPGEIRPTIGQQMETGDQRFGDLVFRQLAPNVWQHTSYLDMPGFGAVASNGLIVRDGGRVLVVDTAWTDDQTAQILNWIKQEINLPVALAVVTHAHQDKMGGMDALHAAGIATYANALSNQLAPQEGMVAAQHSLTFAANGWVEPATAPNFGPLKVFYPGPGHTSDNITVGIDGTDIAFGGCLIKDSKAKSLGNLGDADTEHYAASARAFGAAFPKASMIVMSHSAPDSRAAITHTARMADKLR
value-type: pIC50
Schema: pIC50 number; meaning minus log10 of the concentration expressed in molar units.

Example entries and their recorded answers appear below.
[[record]]
compound = "Nc1nc2cc(-c3ccc(S(=O)(=O)C4CNC4)c(S(N)(=O)=O)c3-c3nn[nH]n3)ccc2o1 [Example 31]"
test_result = 9.47

[[record]]
compound = "C[C@H](N)CS(=O)(=O)c1ccc(-c2cccc3[nH]cnc23)c(-c2nn[nH]n2)c1S(N)(=O)=O [Example 355]"
test_result = 9.78

[[record]]
compound = "Nc1nc2cccc(-c3ccc(S(=O)(=O)[C@H]4CC[C@@H](N)CC4)c(S(N)(=O)=O)c3-c3nn[nH]n3)c2[nH]1 [Example 177]"
test_result = 9.58

[[record]]
compound = "NCCS(=O)(=O)c1ccc(-c2c[nH]c3nccnc23)c(-c2nnn[nH]2)c1S(N)(=O)=O.O=C(O)C(F)(F)F [Example 136, 2,2,2-trifluoroacetate]"
test_result = 8.67

[[record]]
compound = "NS(=O)(=O)c1c(S(=O)(=O)C2CNC2)ccc(-c2ccc3scnc3c2)c1-c1nnn[nH]1.O=C(O)C(F)(F)F [Example 114, 2,2,2-trifluoroacetate]"
test_result = 9.82


Please look up its pIC50: Nc1nc2ccc(-c3ccc(S(=O)(=O)C4CNC4)c(S(N)(=O)=O)c3-c3nn[nH]n3)cc2o1 [Example 29]
9.62

Same thing, different compound: NS(=O)(=O)c1c([S+]([O-])C2CCNCC2)ccc(-c2ccc(C3CCNCC3)cc2)c1-c1nnn[nH]1 (centres unmarked) [Example 227]
8.71

Same thing, different compound: NCCc1nc2c(-c3ccc(S(=O)(=O)CCN)c(S(N)(=O)=O)c3-c3nn[nH]n3)cccc2[nH]1 [Example 306]
9.07

Same thing, different compound: NCCS(=O)(=O)c1ccc(-c2cccc3[nH]c(CC(N)C(=O)O)nc23)c(-c2nn[nH]n2)c1S(N)(=O)=O (centres unmarked) [Example 330]
9.17

Same thing, different compound: N=C(N)c1nc2c(-c3ccc(S(=O)(=O)CCN)c(S(N)(=O)=O)c3-c3nn[nH]n3)cccc2s1 [Example 86]
9.53

###

target: UniProt:C7C422; experiment: biochemical; type: biochemical; conditions: CCF2-FA substrate, 2 hours at 25° C; read-out: NDM-1 IC50
value-type: IC50 (nM)
Report only the number, with the unit nM understood.

Example entries and their recorded answers appear below.
[[record]]
compound = "NCCS(=O)(=O)c1ccc(-c2cnc(N)c(C(N)=O)c2)c(-c2nn[nH]n2)c1S(N)(=O)=O"
test_result = 3.22

[[record]]
compound = "NCCS(=O)(=O)c1ccc(-c2ccc3scnc3c2)c(-c2nnn[nH]2)c1S(N)(=O)=O.O=C(O)C(F)(F)F [Example 174, 2,2,2-trifluoroacetate]"
test_result = 0.392

[[record]]
compound = "Cc1ccc(-c2ccc(S(=O)(=O)C3CNC3)c(S(N)(=O)=O)c2-c2nn[nH]n2)c2nc(N)[nH]c12"
test_result = 0.0897

[[record]]
compound = "NCCS(=O)(=O)c1ccc(-c2cnn3c2CCC3)c(-c2nnn[nH]2)c1S(N)(=O)=O.O=C(O)C(F)(F)F [Example 152, 2,2,2-trifluoroacetate]"
test_result = 5.83

[[record]]
compound = "NCCS(=O)(=O)c1ccc(-c2cccc(NC(=O)[C@H](N)CO)c2)c(-c2nn[nH]n2)c1S(N)(=O)=O"
test_result = 2.53


Okay, next one:
Please look up its IC50: Nc1nc2c(-c3ccc(S(=O)(=O)c4ccccc4)c(S(N)(=O)=O)c3-c3nnn[nH]3)cccc2s1
0.583
